- Test system: OVCAR-8 cell line
- protocol.summary: MTT cytotoxicity assay
- condition.parameters: 120 h treatment
experimental.endpoint: IC50 OVCAR-8 (µg/mL)

molecule	experimental.endpoint	unit.info	recorded.number
CCCCCCCCCCCCCCCC(=O)[O][Pt]1([O]C(=O)CCCCCCCCCCCCCCC)[O]C(=O)C(=O)[O]1.NC1CCCCC1N [OXADP, oxaliplatin dipalmitate]	IC50 OVCAR-8	µg/mL	16
O=C1[O][Pt]2([NH][C@@H]3CCCC[C@H]3[NH]2)[O]C1=O [Oxaliplatin, reference compound]	IC50 OVCAR-8	µg/mL	3.75
CCCCCCCCCCCCCCCC(=O)[O][Pt]1([O]C(=O)CCC(=O)O)[O]C(=O)C(=O)[O]1.NC1CCCCC1N	IC50 OVCAR-8	µg/mL	2.83
CCCCCCCCCCCCCCCC(=O)[O][Pt]12([O]C(C)=O)([NH]C3CCCCC3[NH]1)[O]C(=O)C(=O)[O]2 (stereo not shown) [OXA-PAL-ACT, oxaliplatin palmitate acetate]	IC50 OVCAR-8	µg/mL	0.33
